The measured values listed here are drawn from patent US4816393A.

Collected Relative activity in % (30 mmol/liter ammonium sulphate (AS)=100) values appear next to each entry.
system: 1-methylhydantoinase; assay: Activators of 1-methylhydantoinase; format: biochemical, Arthrobacter species DSM 2563; settings: activator substance 30 mmol/liter
// return numeric value only (unit: %, not printed)

Examples from the recorded data:
{"Compound": "CC(=O)O [NH4 acetate]", "Result value": 98}
{"Compound": "O=S(=O)([O-])[O-].[Na+].[Na+]", "Result value": 39}
{"Compound": "O=S(=O)([O-])[O-].[Li+].[Li+]", "Result value": 40}

Incoming: Entry [Cl-].[Na+] has what Relative activity in % (30 mmol/liter ammonium sulphate (AS)=100)?
Outgoing: 41

Incoming: Entry Cl.N [NH4 Cl, ammonium chloride] has what Relative activity in % (30 mmol/liter ammonium sulphate (AS)=100)?
Outgoing: 91

Incoming: Entry N.N.O=S(=O)(O)O [(NH4)2 SO4, ammonium sulphate] has what Relative activity in % (30 mmol/liter ammonium sulphate (AS)=100)?
Outgoing: 100

Incoming: Entry O=C(O)O has what Relative activity in % (30 mmol/liter ammonium sulphate (AS)=100)?
Outgoing: 40

Incoming: Entry O=S(=O)([O-])[O-].[K+].[K+] has what Relative activity in % (30 mmol/liter ammonium sulphate (AS)=100)?
Outgoing: 59

###

system: 1-methylhydantoinase; experiment: Nucleotide specificity of 1-methylhydantoinase (via carbamoylsarcosinamidohydrolase + sarcosine oxidase); type: biochemical, Arthrobacter species DSM 2563; conditions: nucleotide 4 mmol/liter
Collected Relative activity in % (ATP=100) values appear next to each entry.
// return numeric value only (unit: %, not printed)

Incoming: Entry O=P([O-])([O-])OP(=O)([O-])OP(=O)([O-])[O-].[Na+].[Na+].[Na+].[Na+].[Na+] [Na tripolyphosphate] has what Relative activity in % (ATP=100)?
Outgoing: 0

Incoming: Entry Nc1ccn([C@@H]2O[C@H](COP(=O)(O)OP(=O)(O)OP(=O)(O)O)[C@@H](O)[C@H]2O)c(=O)n1 has what Relative activity in % (ATP=100)?
Outgoing: 1.5

Incoming: Entry Nc1ncnc2c1ncn2[C@@H]1O[C@H](COP(=O)(O)O)[C@@H](O)[C@H]1O has what Relative activity in % (ATP=100)?
Outgoing: 0

Incoming: Entry O=c1ccn([C@@H]2O[C@H](COP(=O)(O)OP(=O)(O)OP(=O)(O)O)[C@@H](O)[C@H]2O)c(=O)[nH]1 has what Relative activity in % (ATP=100)?
Outgoing: 0

Incoming: Entry Cc1cn([C@H]2C[C@H](O)[C@@H](COP(=O)(O)OP(=O)(O)OP(=O)(O)O)O2)c(=O)[nH]c1=O has what Relative activity in % (ATP=100)?
Outgoing: 0

Incoming: Entry Nc1ncnc2c1ncn2[C@@H]1O[C@H](COP(=O)(O)OP(=O)(O)O)[C@@H](O)[C@H]1O has what Relative activity in % (ATP=100)?
Outgoing: 1

Incoming: Entry Nc1ncnc2c1ncn2[C@@H]1O[C@H](COP(=O)(O)OP(=O)(O)OP(=O)(O)O)[C@@H](O)[C@H]1O [ATP, adenosine-5'-triphosphate] has what Relative activity in % (ATP=100)?
Outgoing: 100

Incoming: Entry O=P(O)(O)OP(=O)(O)O [PPi, pyrophosphate] has what Relative activity in % (ATP=100)?
Outgoing: 0

Incoming: Entry Nc1nc2c(ncn2[C@@H]2O[C@H](COP(=O)(O)OP(=O)(O)OP(=O)(O)O)[C@@H](O)[C@H]2O)c(=O)[nH]1 has what Relative activity in % (ATP=100)?
Outgoing: 7
